Target: T1, human CD47-Fc (human, UniProt Q08722 19-139)
T1 construct: also called hCD47; human CD47-Fc protein; not shown: Fc part
T1 sequence (Q08722 19-139 limits assumed): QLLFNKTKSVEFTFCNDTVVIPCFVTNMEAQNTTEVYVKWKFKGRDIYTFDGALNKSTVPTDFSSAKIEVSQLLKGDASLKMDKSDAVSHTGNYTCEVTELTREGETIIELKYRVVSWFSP
Assay: direct ELISA, coated human CD47-Fc, OD450
Each entry below lists one item and its recorded EC50 (read off the curve) value.

VH1.8/VL1.2, human IgG1null (antibody, V domains shown, IgG1null; also called Clone VH1.8/VL1.2) VH: QVQLVQSGAEVKKPGASVKVSCKASGYTFTNYAMHWVRQAPGQRLEWMGTIYPGNDDTKYNQKFQGRVTITADTSASTAYMELSSLRSEDTAVYYCARGGFRAMDYWGQGTLVTVSS VL: DIVMTQSPLSLPVTPGEPASISCRSSQSLLHSNGNTYLGWYLQKPGQSPQLLIYKGSNRFSGVPDRFSGSGSGTDFTLKISRVEAEDVGVYYCFQASQVPYTFGQGTKLEIK : ~0.06 µg/mL
VH1.8/VL1.6, human IgG1null (antibody, V domains shown, IgG1null; also called Clone VH1.8/VL1.6) VH: QVQLVQSGAEVKKPGASVKVSCKASGYTFTNYAMHWVRQAPGQRLEWMGTIYPGNDDTKYNQKFQGRVTITADTSASTAYMELSSLRSEDTAVYYCARGGFRAMDYWGQGTLVTVSS VL: DIVMTQSPLSLPVTPGEPASISCRSSQSLLHSNANTYLGWYLQKPGQSPQLLIYKGSNRFSGVPDRFSGSGSGTDFTLKISRVEAEDVGVYYCFQASHVPYTFGQGTKLEIK : ~0.06 µg/mL

Please examine the following record next.
query: # EC50 (read off the curve) lookup, item VH1.8/VL1.4, human IgG1null (antibody, V domains shown, IgG1null; also called Clone VH1.8/VL1.4) VH: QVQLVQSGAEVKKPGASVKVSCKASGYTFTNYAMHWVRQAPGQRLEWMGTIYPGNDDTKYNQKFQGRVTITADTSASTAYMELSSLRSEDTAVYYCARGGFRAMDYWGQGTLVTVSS VL: DIVMTQSPLSLPVTPGEPASISCRSSQSLLHSNAYNYLGWYLQKPGQSPQLLIYKGSNRFSGVPDRFSGSGSGTDFTLKISRVEAEDVGVYYCFQASQVPYTFGQGTKLEIK
result: ~0.06 µg/mL
